- SYSTEM: hERG K channel (Homo sapiens)
- Construct: host or cells: CHO
- Sequence (Q12809 whole entry): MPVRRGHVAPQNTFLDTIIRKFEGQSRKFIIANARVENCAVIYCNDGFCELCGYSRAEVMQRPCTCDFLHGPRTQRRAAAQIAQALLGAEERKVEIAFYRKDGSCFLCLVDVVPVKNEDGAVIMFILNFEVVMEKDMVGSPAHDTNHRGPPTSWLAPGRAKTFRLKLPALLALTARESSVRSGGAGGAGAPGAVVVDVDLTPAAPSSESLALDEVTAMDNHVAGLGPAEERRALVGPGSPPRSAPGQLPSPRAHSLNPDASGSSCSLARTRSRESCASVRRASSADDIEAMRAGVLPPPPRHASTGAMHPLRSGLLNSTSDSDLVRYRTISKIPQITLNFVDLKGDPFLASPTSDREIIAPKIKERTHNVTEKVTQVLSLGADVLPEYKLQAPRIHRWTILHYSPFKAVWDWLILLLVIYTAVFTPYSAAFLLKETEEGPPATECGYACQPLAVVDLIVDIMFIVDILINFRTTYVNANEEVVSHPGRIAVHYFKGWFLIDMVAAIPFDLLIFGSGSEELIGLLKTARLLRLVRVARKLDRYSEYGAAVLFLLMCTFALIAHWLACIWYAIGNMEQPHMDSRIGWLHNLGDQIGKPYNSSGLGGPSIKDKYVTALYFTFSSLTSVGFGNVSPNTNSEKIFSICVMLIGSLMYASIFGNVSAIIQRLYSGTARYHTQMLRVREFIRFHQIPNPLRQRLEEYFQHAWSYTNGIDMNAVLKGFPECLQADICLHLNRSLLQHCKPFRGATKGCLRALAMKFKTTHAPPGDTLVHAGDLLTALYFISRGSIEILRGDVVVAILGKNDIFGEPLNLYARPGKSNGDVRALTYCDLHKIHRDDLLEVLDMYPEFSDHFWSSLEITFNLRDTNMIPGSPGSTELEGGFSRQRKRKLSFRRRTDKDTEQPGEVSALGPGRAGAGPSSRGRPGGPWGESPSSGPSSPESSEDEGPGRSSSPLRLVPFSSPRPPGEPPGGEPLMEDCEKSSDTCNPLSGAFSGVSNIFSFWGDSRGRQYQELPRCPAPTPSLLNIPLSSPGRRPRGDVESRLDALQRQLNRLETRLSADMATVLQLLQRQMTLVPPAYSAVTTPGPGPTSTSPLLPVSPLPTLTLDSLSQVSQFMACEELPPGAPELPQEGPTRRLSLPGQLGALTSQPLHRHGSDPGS
- MEASUREMENT_DESCRIPTION: hERG Q-Patch assay
- Type: cell-based
- CONDITION_NOTES: concentration 3000 nM; CHO cells expressing hERG; K+ tail current 3 min after application; mean of two or three experiments
Assign % block to each entry below.
# number only, unit % dropped from output

IN: Tell me the measured % block of Cc1nc(C)n(CC(=O)N2CCN(c3sc(C(F)(F)F)nc3-c3ccc(OCC(F)(F)F)cc3)C[C@H]2C)n1 [Example 4] , please.
OUT: 54

IN: For CCOc1ccc(-c2nc(C(F)(F)F)sc2N2CCN(C(=O)Cn3nc(C)nc3C)[C@H](C)C2)cc1 [Example 31] then?
OUT: 14

IN: For COc1ccc(-c2nc(C(F)(F)F)sc2N2CCN(C(=O)Cn3nc(C)nc3C)[C@H](C)C2)cc1C [Example 12] then?
OUT: 27

IN: For CCOc1ccc(-c2nc(C(F)(F)F)sc2N2CCN(C(=O)Cn3nc(C)nc3C)[C@H](C)C2)cn1 [Example 15] then?
OUT: 13

IN: For CC[C@@H]1CN(c2sc(C(F)(F)F)nc2-c2cnc(C(F)(F)F)nc2)CCN1C(=O)Cn1nc(C)nc1C [Example 51] then?
OUT: 18

IN: For Cc1nc(C)n(CC(=O)N2CCN(c3sc(C(F)(F)F)nc3-c3cnc(OC(C)C)nc3)C[C@H]2C)n1 [Example 27] then?
OUT: 6

IN: For CCOc1ncc(-c2nc(C(F)(F)F)sc2N2CCN(C(=O)Cn3nc(CC)nc3C)[C@H](C)C2)cn1 (single isomer, unassigned) [Example 18] then?
OUT: 13
